system: NRTI-resistant recombinant HIV-1 isolates; assay: p24 assay, multi-NRTI-resistant recombinant HIV-1 clones; assay type: cell-based; conditions: Human immunodeficiency virus 1, read-out: IC50 (nM), p24, recombinant clone 52252-1 in Table 18, 56252-1 in Tables 19 and 20 (K65R, 151 complex)

{"columns": ["Compound", "Subject of test", "IC50"],
 "data": [
  ["COC(=O)C(C)NP(=O)(OC[C@@H]1C=C[C@H](n2cc(C)c(=O)[nH]c2=O)O1)Oc1ccc(Br)cc1 (stereo partly shown) [Compound 1c]", "NRTI-resistant recombinant HIV-1 isolates", "25 nM"],
  ["CC(C)(C)NC(=O)[C@@H]1CN(Cc2cccnc2)CCN1C[C@@H](O)C[C@@H](Cc1ccccc1)C(=O)N[C@H]1c2ccccc2C[C@H]1O [indinavir]", "NRTI-resistant recombinant HIV-1 isolates", "9 nM"],
  ["Nc1ccn([C@@H]2CS[C@H](CO)O2)c(=O)n1 [lamivudine]", "NRTI-resistant recombinant HIV-1 isolates", "> 10000 nM"],
  ["Cc1cn([C@H]2C[C@H](N=[N+]=[N-])[C@@H](CO)O2)c(=O)[nH]c1=O [AZT, 3′-azido-3′-deoxythymidine]", "NRTI-resistant recombinant HIV-1 isolates", "> 1000 nM"]
]}

====

assay: Microculture tetrazolium assay (MTA) cytotoxicity in CEM cells; conditions: human

{"columns": ["Compound", "IC50"],
 "data": [
  ["COC(=O)C(C)NP(=O)(OC[C@H]1O[C@@H](n2cc(C)c(=O)[nH]c2=O)CC1N=[N+]=[N-])Oc1ccc(Br)cc1 (some centres unmarked) [Compound 5c]", "> 10 µM"],
  ["COC(=O)C(C)NP(=O)(OC[C@@H]1C=C[C@H](n2cc(C)c(=O)[nH]c2=O)O1)Oc1ccc(Br)cc1 (some centres unmarked) [Compound 1c]", "> 10 µM"]
]}

====

tested on: HIV-1 (HTLVIIIB) in TK-deficient CEM T-cells; test: Inhibition of HIV-1 replication in TK-deficient CEM T-cells (p24 / RT activity); type: cell-based; settings: Human immunodeficiency virus 1, T-cell, TK-deficient CEM T-cells; Table 4; read-out: CEM IC50 [RT]
pIC50: −log10 of the molar value.
Reported metric: pIC50

{"columns": ["Smiles notation", "Reported metric", "Measured number"],
 "data": [
  ["Cc1cn([C@H]2CC[C@@H](CO)O2)c(=O)[nH]c1=O", "pIC50", 4.04]
]}

====

experiment: in vitro; settings: human, IC50 [MTA]
Reported metric: IC50 at 5 days

{"columns": ["Compound", "Result"],
 "data": [
  ["Cc1cn([C@H]2C=C[C@@H](CO)O2)c(=O)[nH]c1=O [d4T, 2′,3′-didehydro-2′,3′-dideoxythymidine]", "> 10 µM"]
]}

====

Test system: zidovudine-resistant primary clinical HIV-1 isolates
Experiment: p24 drug susceptibility assay, NRTI-/zidovudine-resistant primary clinical HIV-1 isolates in PBMC
Assay type: cell-based
Details: Human immunodeficiency virus 1, PBMC, isolate C467-4 (K20R, D67N, K70R, Y188L, T215F, K219Q); PBMC
Protocol: Viruses. […] Antiviral susceptibility assays. […] Percent inhibition of viral replication was calculated by comparing the p24 values from the test substance-treated infected cells with p24 values from untreated infected cells (i.e., virus controls). The IC50 values were determined using the Statview statistics program (SAS Institute, Inc.). […] A microculture tetrazolium assay (MTA) was performed to quantitate cellular proliferation (Uckun, 1998, Antimicrobial Agents and Chemotherapy, 42:383-388). […]
pIC50: −log10 of the molar value.
Catalogue of pIC50 values

{"columns": ["Molecule", "Subject of test", "pIC50"],
 "data": [
  ["Cc1cn([C@H]2C[C@H](N=[N+]=[N-])[C@@H](CO)O2)c(=O)[nH]c1=O [AZT, 3′-azido-3′-deoxythymidine]", "zidovudine-resistant primary clinical HIV-1 isolates", 5.49],
  ["COC(=O)C(C)NP(=O)(OC[C@@H]1C=C[C@H](n2cc(C)c(=O)[nH]c2=O)O1)Oc1ccc(Br)cc1 (some centres unmarked) [Compound 1c]", "zidovudine-resistant primary clinical HIV-1 isolates", 7.38]
]}
